Experiment: logP determination by HPLC on a reversed-phase column (C18), EEC Directive 79/831 Annex V.A8
Type: physicochemical
Details: HPLC on reversed-phase column (C18), acetonitrile/water with formic acid, EEC Directive 79/831 Annex V.A8
readoutKind: logP

>>> experimentalresult("Cn1nc(C(F)(F)C(F)(F)F)c(C(F)(F)F)c1-n1cc(-c2ccc(Cl)c(C(=O)NCC(C)(F)F)c2)cn1")
4.05
>>> experimentalresult("CCOC1(NC(=O)c2cc(-c3cnn(-c4c(C(F)(F)F)c(C(F)(F)C(F)(F)F)nn4C)c3)ccc2Cl)CC1")
4.08
>>> experimentalresult("Cc1nn(-c2c(C(F)(F)F)c(C(F)(F)C(F)(F)F)nn2C)c(C)c1-c1ccc(Cl)c(C(=O)NC2CC2)c1")
4.02

###

Test system: cattle ticks (Boophilus microplus) Parkhurst strain, SP-resistant
Assay: Boophilus microplus dip test (BOOPMI Dip)
Format: in vivo
Details: application rate 100 ppm, assessed after 7 days
// reported efficacy (laying of fertile eggs) per item
readoutKind: efficacy (laying of fertile eggs)

>>> experimentalresult("Cn1nc(C(F)(F)C(F)(F)F)c(C(F)(F)F)c1-n1cc(-c2ccc(Br)c(C(=O)NC3(C#N)CC3)c2)cn1")
"100%"
>>> experimentalresult("Cn1ccc(NC(=O)c2cc(-c3cnn(-c4c(C(F)(F)F)c(C(F)(F)C(F)(F)F)nn4C)c3)ccc2Cl)n1")
"80%"
>>> experimentalresult("C#CCNC(=O)c1cc(-c2cnn(-c3c(C(F)(F)F)c(C(F)(F)C(F)(F)F)nn3C)c2)ccc1Cl")
"100%"
>>> experimentalresult("Cc1cc(-c2cnn(-c3c(C(F)(F)F)c(C(F)(F)C(F)(F)F)nn3C)c2)cc(C(=O)NC2CC2)c1Cl")
"100%"
>>> experimentalresult("Cc1ccc(-c2cnn(-c3c(C(F)(F)F)c(C(F)(F)C(F)(F)F)nn3C)c2)cc1C(=O)NC1CC1")
"100%"
>>> experimentalresult("Cn1nc(C(F)(F)C(F)(F)F)c(C(F)(F)F)c1-n1cnc(-c2ccc(Cl)c(C(=O)NC3(C#N)CC3)c2)c1")
"100%"
>>> experimentalresult("Cn1nc(C(F)(F)C(F)(F)F)c(C(F)(F)F)c1-n1cc(-c2cc(C(=O)NC3(C#N)CC3)c(F)cc2Cl)cn1")
"80%"
>>> experimentalresult("Cn1nc(C(F)(F)C(F)(F)F)c(C(F)(F)F)c1-n1cc(-c2ccc(Cl)c(C(=O)NCCF)c2)cn1")
"100%"
>>> experimentalresult("Cn1nc(C(F)(F)C(F)(F)F)c(C(F)(F)F)c1-n1cc(-c2ccc(Cl)c(C(=O)NCC(C)(F)F)c2)cn1")
"80%"
>>> experimentalresult("Cn1nc(C(F)(F)C(F)(F)F)c(C(F)(F)F)c1-n1cc(-c2ccc(Cl)c(C(=O)NC3(C(N)=S)CC3)c2)cn1")
"100%"
>>> experimentalresult("CCn1nc(C(F)(F)C(F)(F)F)c(C(F)(F)F)c1-n1cc(-c2ccc(Cl)c(C(=O)NC3CC3)c2)cn1")
"100%"
>>> experimentalresult("Cn1nc(C(F)(F)C(F)(F)F)c(C(F)(F)F)c1-n1cc(-c2ccc([N+](=O)[O-])c(C(=O)NC3(C#N)CC3)c2)cn1")
"100%"
>>> experimentalresult("Cc1ncc(-c2cnn(-c3c(C(F)(F)F)c(C(F)(F)C(F)(F)F)nn3C)c2)cc1C(=O)NC1CC1")
"100%"
>>> experimentalresult("Cn1nc(C(F)(F)C(F)(F)F)c(C(F)(F)F)c1-n1cc(-c2ccc(Cl)c(C(=O)NCC=CCl)c2)cn1")
"100%"
>>> experimentalresult("COCCNC(=O)c1cc(-c2cnn(-c3c(C(F)(F)F)c(C(F)(F)C(F)(F)F)nn3C)c2)ccc1Cl")
"100%"
>>> experimentalresult("C=C=CCNC(=O)c1cc(-c2cnn(-c3c(C(F)(F)F)c(C(F)(F)C(F)(F)F)nn3C)c2)ccc1Cl")
"100%"
>>> experimentalresult("CNC(=O)c1cc(-c2cnn(-c3c(C(F)(F)F)c(C(F)(F)C(F)(F)F)nn3C)c2)ccc1Cl")
"100%"
